# TARGET SYSTEM: truncated His-MBP-Tev-KLHDC2 (residues 1-363) (Homo sapiens)
# Construct: truncated His -MBP-Tev-KLHDC2 (residues 1-363) purified from E. coli; made in house; host or cells: E. coli
# ASSAY SUMMARY: KLHDC2 HTRF binding assay
# CONDITION DESCRIPTION: 1 nM KLHDC2 (residues 1-363), fluorescein-labeled diglycine peptide probe
Kindly state IC50 for each of the entries shown.

// known answers, use as guide
stdin: Fill in the blank: the reported IC50 of Cc1ccc(C)c(-c2ccc(O)c(CC(=O)O)c2)c1 [I-338] is ____.
stdout: > 5 µM

stdin: Fill in the blank: the reported IC50 of Cc1ccc(C(=O)Nc2ccc(=O)n(CC(=O)O)c2)cc1-c1cccnc1 [I-202] is ____.
stdout: 0.05 to 0.5 µM

stdin: Fill in the blank: the reported IC50 of N#Cc1cc(=O)n(CC(=O)O)cc1NC(=O)c1cccc(-c2cccnc2)c1 [I-25] is ____.
stdout: 0.05 to 0.5 µM

stdin: Fill in the blank: the reported IC50 of O=C(O)Cc1cc(NC(=O)[C@@H]2CCCN(c3cccnc3)C2)ccc1F [I-27] is ____.
stdout: > 5 µM

stdin: Fill in the blank: the reported IC50 of CNc1cncc(N2CCC[C@H](C(=O)Nc3ccc(Cl)c(CC(=O)O)c3)C2)c1 [I-18] is ____.
stdout: 0.05 to 0.5 µM

stdin: Fill in the blank: the reported IC50 of C[C@@]1(C(=O)Nc2ccc(=O)n(CC(=O)O)c2)CCCN(c2cccnc2)C1 [I-66] is ____.
stdout: 0.5 to 5 µM

List reported IC50 for each of these molecules:
1. O=C(O)Cn1cc(NC(=O)[C@@H]2CCCN(c3cccnc3)C2)c(C2CC2)cc1=O [I-58]
2. O=C(O)Cn1cc(-c2ccc3[nH]ncc3c2)ccc1=O [I-387]
3. O=C(O)Cn1cc(NC(=O)C2CCCc3cc(O)ccc32)ccc1=O (stereo not shown) [I-245]
4. Cc1ccc(Cl)c(-c2ccc(=O)n(CC(=O)O)c2)c1 [I-342]

stdout:
0.5 to 5 µM
> 5 µM
> 5 µM
> 5 µM

List reported IC50 for each of these molecules:
1. Nc1ccc(-c2ccc(=O)n(CC(=O)O)c2)cn1 [I-367]
2. O=C(O)Cn1cc(-c2ccccc2C(F)(F)F)ccc1=O [I-369]
3. O=C(O)Cn1cc(NS(=O)(=O)c2ccccc2)ccc1=O [I-317]
4. Nc1ccc(F)c2c(O)n[nH]c12 [I-427]
5. O=C(O)Cn1cc(N2CC[C@@]3(CCCN(c4cccnc4)C3)C2=O)ccc1=O [I-14]
6. O=C(O)Cn1cc(-c2ccc(C(F)(F)F)cc2)ccc1=O [I-372]
7. CC(C)=Cc1cccc(-c2ccc(=O)n(CC(=O)O)c2)c1 [I-331]
8. CC(C)Cn1ccc2c(C(=O)Nc3ccc(=O)n(CC(=O)O)c3)ccnc21 [I-132]

stdout:
1. > 5 µM
2. > 5 µM
3. > 5 µM
4. 0.5 to 5 µM
5. > 5 µM
6. > 5 µM
7. > 5 µM
8. 0.5 to 5 µM

List reported IC50 for each of these molecules:
1. O=C(O)Cc1cccc(NC(=O)CCc2cccc(OC3CCCC3)c2)c1 [I-351]
2. Cc1ccc(C(=O)Nc2ccc(=O)n(CC(=O)O)c2)cc1-c1ccccc1 [I-269]
3. O=C(O)Cn1cc(NC(=O)c2cccc(-c3cccnc3)c2)c(Cl)cc1=O [I-97]
4. COc1cc(-c2cncs2)ccc1C(=O)Nc1ccc(=O)n(CC(=O)O)c1 [I-154]
5. CS(=O)(=O)c1ccc(-c2cccc(C(=O)Nc3ccc(=O)n(CC(=O)O)c3)c2)cc1 [I-192]
6. O=C(O)Cn1cc(/C=C/c2ccccc2)ccc1=O [I-326]
7. CCc1ccc(C)c(-c2ccc(=O)n(CC(=O)O)c2)c1 [I-340]

stdout:
> 5 µM
0.5 to 5 µM
0.05 to 0.5 µM
0.5 to 5 µM
> 5 µM
> 5 µM
> 5 µM

List reported IC50 for each of these molecules:
1. Cc1ccc(C)c(-c2ccc(=O)n(CC(=O)O)c2)c1 [I-419]
2. CC(C)Cc1cccc(-c2ccc(=O)n(CC(=O)O)c2)c1 [I-344]
3. O=C(O)Cn1cc(NC(=O)[C@H]2C[C@H](C(F)(F)F)CN(c3cccnc3)C2)ccc1=O [I-64]

stdout:
1: > 5 µM; 2: > 5 µM; 3: 0.05 to 0.5 µM

====

# TARGET SYSTEM: truncated His-MBP-Tev-KLHDC2 (residues 1-363) (Homo sapiens, UniProt Q9Y2U9)
# Construct: truncated His -MBP-Tev-KLHDC2 (residues 1-363) purified from E. coli; made in house; host or cells: E. coli
# Sequence (Q9Y2U9 1-363): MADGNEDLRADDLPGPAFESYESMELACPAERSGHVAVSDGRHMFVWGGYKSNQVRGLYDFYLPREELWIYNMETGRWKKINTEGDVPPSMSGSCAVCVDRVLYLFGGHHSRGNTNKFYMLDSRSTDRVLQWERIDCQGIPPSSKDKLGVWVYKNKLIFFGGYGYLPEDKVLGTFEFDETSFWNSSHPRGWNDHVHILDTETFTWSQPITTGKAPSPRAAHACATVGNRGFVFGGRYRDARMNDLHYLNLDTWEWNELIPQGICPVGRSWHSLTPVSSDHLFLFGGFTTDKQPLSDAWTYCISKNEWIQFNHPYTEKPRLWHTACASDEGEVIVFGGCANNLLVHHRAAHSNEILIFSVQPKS
# ASSAY SUMMARY: KLHDC2 FP competition binding assay
# CONDITION DESCRIPTION: 15 nM KLHDC2 (residues 1-363), 10 nM fluorescein-labeled diglycine peptide probe, read-out: KLHDC2 binding Human FP: average external IC50
METRIC: IC50

List reported IC50 for each of these compounds:
1. O=C(O)Cn1cc(NC(=O)c2cccc(-c3ccccc3)c2)ccc1=O [I-315]
2. O=C(O)Cn1cc(NC(=O)COc2ccc(C(F)(F)F)cc2)ccc1=O [I-256]

stdout:
> 5 µM
> 5 µM

List reported IC50 for each of these compounds:
1. O=C(O)Cn1cc(NC(=O)c2cccc(-c3cccnc3)c2Cl)ccc1=O [I-42]
2. CC(C)(C)OC(=O)NCCCCCCc1cc(C(=O)Nc2ccc(=O)n(CC(=O)O)c2)cc(-c2cccnc2)c1 [I-165]
3. COc1cncc(N2CCC[C@H](C(=O)Nc3ccc(Cl)c(CC(=O)O)c3)C2)c1 [I-20]
4. O=C(O)Cc1cc(NC(=O)[C@H]2CCCN(c3cccnc3)C2)ccc1F [I-33]

stdout:
1. > 5 µM
2. 0.05 to 0.5 µM
3. 0.5 to 5 µM
4. 0.5 to 5 µM

List reported IC50 for each of these compounds:
1. Cc1cc(=O)n(CC(=O)O)cc1-c1cc(F)c(O)c(F)c1 [I-329]
2. O=C(O)CN1CC(NC(=O)c2ccccc2)CCC1=O (stereo not drawn) [I-271]
3. COc1cncc(-c2cccc(C(=O)Nc3ccc(O)c(CC(=O)O)c3)c2)c1 [I-22]
4. NCCCCCCCCCc1ccc2c(-c3cccc(C(=O)Nc4ccc(=O)n(CC(=O)O)c4)c3)cncc2c1 [I-107]
5. O=C(O)Cn1cc(-c2cnc(N3CCOCC3)nc2)ccc1=O [I-361]

stdout:
["> 5 µM", "> 5 µM", "> 5 µM", "> 5 µM", "> 5 µM"]

====

Kindly state pIC50 for each of the entries shown.
# TARGET SYSTEM: truncated His-MBP-Tev-KLHDC2 (residues 1-363) (Homo sapiens)
# Construct: truncated His -MBP-Tev-KLHDC2 (residues 1-363) purified from E. coli; made in house; host or cells: E. coli
# ASSAY SUMMARY: KLHDC2 HTRF binding assay
# CONDITION DESCRIPTION: 1 nM KLHDC2 (residues 1-363), fluorescein-labeled diglycine peptide probe
pIC50: −log10 of the molar value.

// known answers, use as guide
stdin: Look up pIC50 with truncated His-MBP-Tev-KLHDC2 (residues 1-363) (Homo sapiens) for this compound: O=C(O)C1CC(=O)N(Cc2ccc(Cl)cc2)C1 (stereo not shown)
stdout: < 5.30

stdin: Look up pIC50 with truncated His-MBP-Tev-KLHDC2 (residues 1-363) (Homo sapiens) for this compound: "O=C(O)Cn1cc(NC(=O)c2ccc(-c3ccccc3)cc2)ccc1=O"
stdout: 5.30 to 6.30

stdin: Look up pIC50 with truncated His-MBP-Tev-KLHDC2 (residues 1-363) (Homo sapiens) for this compound: O=C(O)CN1CC(NC(=O)c2cccc(-c3ccccc3)c2)CCC1=O (stereo not shown)
stdout: < 5.30

stdin: Look up pIC50 with truncated His-MBP-Tev-KLHDC2 (residues 1-363) (Homo sapiens) for this compound: "O=C(O)Cc1cc(NC(=O)[C@H]2CCCN(c3cccnc3)C2)ccc1F"
stdout: 6.30 to 7.30

List reported pIC50 for each of these compounds:
1. O=C(O)Cn1cc(NC(=O)CCCc2ccc(C3CC3)cc2)ccc1=O
2. O=C(O)Cn1cc(-c2cccc3ccccc23)ccc1=O
3. O=C(O)Cn1cc(NC(=O)c2cccc(-c3cncc4ccccc34)c2)ccc1=O
4. O=C(O)Cn1cc(NC(=O)[C@@H]2CCCN(c3cccnc3)CC2)ccc1=O
5. COc1cc(-c2cccnc2)ccc1C(=O)Nc1ccc(=O)n(CC(=O)O)c1

stdout:
1. 5.30 to 6.30
2. < 5.30
3. > 7.30
4. 5.30 to 6.30
5. 5.30 to 6.30

stdin: Look up pIC50 with truncated His-MBP-Tev-KLHDC2 (residues 1-363) (Homo sapiens) for this compound: "O=C(O)Cn1cc(-c2cncc(OCc3ccccc3)c2)ccc1=O"
stdout: < 5.30
